- TARGET: glycine binding site of the NMDA receptor channel (Rattus norvegicus, UniProt P35439)
- TEST_NAME: Receptor binding studies, displacement of (3H)-MDL 105,519 from brain membrane homogenates
- SETTINGS: glycine binding site of the NMDA receptor channel; rat cortex/hippocampus membrane homogenate; 1 nmol/l (3H)-MDL 105,519; from IC50 by Cheng-Prussoff equation
- Experimental: The tests to determine the affinity of the compounds of formula (I) according to the invention for the glycine binding site of the NMDA receptor channel were carried out on brain membrane homogenates (homogenate of cortex and hippocampus area from the brains of male rats, Wistar strain) (B. M. Baron, B. W. Siegel, B. L. Harrison, R. S. Gross, C. Hawes and P. Towers, Journal of Pharmacology and Experimental Therapeutics, (1996), Vol. 279, p. 62). […]
Structures can show the parent of a compound that is named as a salt.
Output 1 for records whose Ki is lower than 3000 nM, -1 for records at or above 3000 nM.

{"MOLECULE": "O=C(O)C(Nc1cc(Cl)cc(Cl)c1)c1ccc(CSSCc2ccco2)o1 (centres unmarked)", "ASSIGNED_CLASS": 1}
{"MOLECULE": "CSSCc1ccc(C(Nc2cc(Cl)cc(Cl)c2)C(=O)O)o1 (centres unmarked)", "ASSIGNED_CLASS": 1}
{"MOLECULE": "O=C(O)C(Nc1cc(Cl)cc(Cl)c1)c1ccc(Cl)s1 (centres unmarked)", "ASSIGNED_CLASS": 1}
{"MOLECULE": "Cc1csc(C(Nc2cc(Cl)cc(Cl)c2)C(=O)O)c1 (centres unmarked)", "ASSIGNED_CLASS": -1}

Query: For this molecule, is Ki lower than 3000 nM? CC(=O)SCc1ccc(C(Nc2cc(Cl)cc(Cl)c2)C(=O)O)o1 (centres unmarked)
Reply: 1

Query: For this molecule, is Ki lower than 3000 nM? Cc1ccc(C(Nc2cc(Cl)cc(Cl)c2)C(=O)O)s1 (centres unmarked) [Example 125-Na, sodium salt]
Reply: -1

Query: For this molecule, is Ki lower than 3000 nM? CC(=O)OCc1ccc(C(Nc2cc(Cl)cc(Cl)c2)C(=O)O)o1 (centres unmarked)
Reply: -1
